Assign pIC50 to each entry below.
biological target: KRAS G13D (Homo sapiens, UniProt P01116+P62937, G13D); assay: Ras-Raf disruption/FRET/MOA assay, KRAS G13D; assay type: biochemical; conditions: disruption of BRAF RBD binding, with Cyclophilin A; read-out: KRAS G13D FRET IC50
Sequence (P01116 1-169 isoform P01116-2 G13D limits assumed): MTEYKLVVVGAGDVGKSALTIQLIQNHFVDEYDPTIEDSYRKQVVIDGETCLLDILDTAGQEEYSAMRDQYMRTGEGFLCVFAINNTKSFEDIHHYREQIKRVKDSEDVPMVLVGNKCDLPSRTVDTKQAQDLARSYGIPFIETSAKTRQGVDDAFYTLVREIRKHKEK
Sequence (P62937 whole entry): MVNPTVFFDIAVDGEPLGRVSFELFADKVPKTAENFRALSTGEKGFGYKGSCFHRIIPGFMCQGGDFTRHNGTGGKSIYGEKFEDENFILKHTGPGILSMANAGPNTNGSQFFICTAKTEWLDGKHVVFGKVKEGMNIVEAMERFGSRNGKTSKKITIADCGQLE
pIC50: −log10 of the molar value.

### Prompt For the compound shown here, CCn1c(-c2cccnc2[C@H](C)OC)c2c3cc(ccc31)-c1csc(n1)C[C@H](NC(=O)[C@H](C(C)C)N(C)C(=O)N1CCC[C@@H](N(C)C(=O)[C@@H]3CN3)C1)C(=O)N1CCC[C@H](N1)C(=O)OCC(C)(C)C2 (atropisomer, axis not shown) , give the reported pIC50.
### Response 6.00 to 7.00

### Prompt Entry CCn1c(-c2cccnc2[C@H](C)OC)c2c3cc(ccc31)-c1csc(n1)C[C@H](NC(=O)[C@H](C(C)C)N(C)C(=O)N1CCC[C@@H](N(C)C(=O)[C@H]3CN3)C1)C(=O)N1CCC[C@H](N1)C(=O)OCC(C)(C)C2 (atropisomer, axis not shown) : reported pIC50 = ?
### Response 6.00 to 7.00

### Prompt For the compound shown here, CCn1c(-c2cnccc2COC)c2c3cc(ccc31)-c1cc(O)cc(c1)C[C@H](NC(=O)[C@H](C(C)C)N(C)C(=O)CN1C(=O)[C@@H]3[C@H](C1=O)N3Cc1ccccc1)C(=O)N1CCC[C@H](N1)C(=O)OCC(C)(C)C2 (stereo partly shown) , give the reported pIC50.
### Response 5.00 to 6.00

### Prompt Query (compound): CCn1c(-c2cccnc2[C@H](C)OC)c2c3cc(ccc31)-c1cc(O)cc(c1)C[C@H](NC(=O)[C@H](C(C)C)N(C)C(=O)N1CCN(C(=O)[C@@H]3CN3)CC1)C(=O)N1CCC[C@H](N1)C(=O)OCC(C)(C)C2 (atropisomer, axis not shown) ; field requested: pIC50
### Response 7.00 to 8.00
